Molecular target: V599E Raf (Homo sapiens, UniProt P15056, V600E)
Sequence (P15056 whole entry V600E): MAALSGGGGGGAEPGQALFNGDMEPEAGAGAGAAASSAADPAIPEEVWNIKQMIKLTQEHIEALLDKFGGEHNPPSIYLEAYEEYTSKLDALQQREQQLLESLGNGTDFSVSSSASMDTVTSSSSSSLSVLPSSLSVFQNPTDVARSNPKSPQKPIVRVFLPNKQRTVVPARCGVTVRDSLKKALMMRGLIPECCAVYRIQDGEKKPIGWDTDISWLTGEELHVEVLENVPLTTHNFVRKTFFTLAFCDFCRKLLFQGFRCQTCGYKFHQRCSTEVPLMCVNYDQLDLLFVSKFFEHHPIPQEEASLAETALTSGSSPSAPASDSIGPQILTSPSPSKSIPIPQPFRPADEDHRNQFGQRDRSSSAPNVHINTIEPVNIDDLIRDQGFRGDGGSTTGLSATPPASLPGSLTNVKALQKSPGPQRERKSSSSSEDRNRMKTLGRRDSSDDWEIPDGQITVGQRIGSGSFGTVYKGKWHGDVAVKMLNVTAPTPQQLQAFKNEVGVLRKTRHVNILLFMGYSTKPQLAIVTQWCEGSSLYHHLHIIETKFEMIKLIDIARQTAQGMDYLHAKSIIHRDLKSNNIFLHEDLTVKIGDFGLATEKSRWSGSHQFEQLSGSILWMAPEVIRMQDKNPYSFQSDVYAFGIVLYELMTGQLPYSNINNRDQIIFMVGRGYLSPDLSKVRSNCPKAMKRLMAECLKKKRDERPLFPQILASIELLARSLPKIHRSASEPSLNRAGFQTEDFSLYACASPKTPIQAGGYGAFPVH
Assay: Biochemical FRET assay, mutant Raf (phosphorylation of MEK)
Details: 0.125 nM V599E Raf, 100 nM biotin-MEK, 25 μM ATP, read-out: Raf (mut) inhibition
# IC50 listing for each entry below

Worked set:
>>> test_result("CC(NC(=O)c1cc2c(cn1)ncn2C)c1cnc(Nc2cc(C(=O)O)cc(C(C)(C)C)c2)s1 (stereo not drawn)")
"100 to 1000 nM"
>>> test_result("C[C@@H](NC(=O)c1cnc(C#N)n1C)c1ncc(C(=O)Nc2cc(C(F)(F)F)c(Cl)cn2)s1")
"≤ 100 nM"
>>> test_result("CC(NC(=O)c1ccc2nc(N)sc2c1)c1cnc(Nc2ccc(C(F)(F)F)cc2)s1 (stereo not drawn)")
"≤ 100 nM"
>>> test_result("C[C@@H](NC(=O)c1cnn2ccccc12)c1cc(C(=O)Nc2ccc(Br)c(C(F)(F)F)c2)on1")
"100 to 1000 nM"
>>> test_result("CCc1[nH]ncc1C(=O)N[C@H](C)c1ncc(C(=O)Nc2cc(C(F)(F)F)c(Cl)cn2)s1")
"100 to 1000 nM"

IC50 for C[C@@H](NC(=O)c1ccc2[nH]nnc2c1)c1ncc(C(=O)Nc2cc(C(F)(F)F)c(Cl)cn2)s1 ?
≤ 100 nM

IC50 for CC(NC(=O)c1cc2nc[nH]c2cn1)c1ncc(C(=O)Nc2cc(C(F)(F)F)c(Cl)cn2)s1 (stereo not drawn) ?
≤ 100 nM

IC50 for CC(NC(=O)c1cc2c(cn1)nc(N)n2C)c1cnc(Nc2ccc(C(F)(F)F)cc2)cn1 (stereo not drawn) ?
≤ 100 nM

IC50 for C[C@@H](NC(=O)c1cc2c(cn1)ncn2[C@H]1CCNC1)c1cnc(Nc2ccc(C(F)(F)F)cc2)s1 ?
≤ 100 nM

IC50 for CC(NC(=O)c1cnn2cc(-c3cccnc3)ccc12)c1ncc(C(=O)Nc2cc(C(F)(F)F)c(Cl)cn2)s1 (stereo not drawn) ?
≤ 100 nM

IC50 for CC(NC(=O)c1cc2c(cn1)ncn2C)c1cnc(Nc2cnc(C(F)(F)F)nc2)s1 (stereo not drawn) ?
≤ 100 nM

IC50 for CCNCCn1cnc2cnc(C(=O)NC(C)c3cnc(Nc4ccc(C(F)(F)F)cc4)s3)cc21 (stereo not drawn) ?
≤ 100 nM
